Assign Eta^2, PHQ-9 score vs Ctrough to each entry below.
REPORTED_CONDITIONS: human, in vivo
Counter-ions that a name gives are not always drawn.
Format: numeric value only, no unit, no commentary.

INPUT: Fill in: Eta^2, PHQ-9 score vs Ctrough of Nc1nc(NC2CC2)c2ncn([C@H]3C=C[C@@H](CO)C3)c2n1 is ___
OUTPUT: 0.000

INPUT: Now give it for Nc1nc(=O)n([C@@H]2CS[C@H](CO)O2)cc1F too.
OUTPUT: 0.004

INPUT: How about Nc1ccn([C@@H]2CS[C@H](CO)O2)c(=O)n1 ?
OUTPUT: 0.015

INPUT: Likewise for CC(C)OC(=O)OCOP(=O)(CO[C@H](C)Cn1cnc2c(N)ncnc21)OCOC(=O)OC(C)C [TDF, tenofovir disoproxil fumarate] ?
OUTPUT: 0.002

====

REPORTED_CONDITIONS: human, in vivo
Procedure: NRTI concentrations were measured by a validated method on ultra-performance liquid chromatography (ACQUITY, Waters) in plasma samples collected at study baseline. […] For each of the four NRTIs, population PK models were determined using nonlinear mixed effects (NONMEM v.7.3) using the $PRIOR subroutine to stabilise the models and aid partition of inter-individual and residual variabilities. The impact of covariates on antiretroviral apparent oral clearance was evaluated. […]
Where a name gives a salt, the structure may show the parent alone.
Task for the reader: assign each of the following compounds its reported Eta^2, Use of boosted PI vs Ctrough.
Number only, no unit.

INPUT: Entry Nc1ccn([C@@H]2CS[C@H](CO)O2)c(=O)n1 [3TC, lamivudine] has what Eta^2, Use of boosted PI vs Ctrough?
OUTPUT: 0.039

INPUT: One more compound: Nc1nc(=O)n([C@@H]2CS[C@H](CO)O2)cc1F [FTC, emtricitabine]
OUTPUT: 0.005

INPUT: Again, but for CC(C)OC(=O)OCOP(=O)(CO[C@H](C)Cn1cnc2c(N)ncnc21)OCOC(=O)OC(C)C [TDF, tenofovir disoproxil fumarate]
OUTPUT: 0.004

INPUT: For Nc1nc(NC2CC2)c2ncn([C@H]3C=C[C@@H](CO)C3)c2n1 [ABC, abacavir] then?
OUTPUT: 0.059

====

REPORTED_CONDITIONS: human, in vivo
Counter-ions that a name gives are not always drawn.
Give measured Eta^2, Alcohol consumption vs Ctrough for each item. Keep answers brief.
Give your answer as a number; write no unit.

INPUT: Entry Nc1nc(NC2CC2)c2ncn([C@H]3C=C[C@@H](CO)C3)c2n1 has what Eta^2, Alcohol consumption vs Ctrough?
OUTPUT: 0.008

INPUT: Param item: Nc1ccn([C@@H]2CS[C@H](CO)O2)c(=O)n1
OUTPUT: 0.005

INPUT: Then Nc1nc(=O)n([C@@H]2CS[C@H](CO)O2)cc1F ?
OUTPUT: 0.001

INPUT: Let us now turn to CC(C)OC(=O)OCOP(=O)(CO[C@H](C)Cn1cnc2c(N)ncnc21)OCOC(=O)OC(C)C [TDF, tenofovir disoproxil fumarate]
OUTPUT: 0.001

====

MEASUREMENT_NOTES: Plasma NRTI concentrations and population PK parameters (POPPY study)
REPORTED_CONDITIONS: human, po
QUANTITY_NAME: AUC(0-t) (ng·h/mL)
State just the number; it will be interpreted in ng·h/mL.

INPUT: Fill blank: measured AUC(0-t) of the compound C[C@H](Cn1cnc2c(N)ncnc21)OCP(=O)(O)O is ____.
OUTPUT: 2700

INPUT: Please give the result for Nc1nc(=O)n([C@@H]2CS[C@H](CO)O2)cc1F too.
OUTPUT: 10400

INPUT: And for Nc1ccn([C@@H]2CS[C@H](CO)O2)c(=O)n1 ?
OUTPUT: 9900

INPUT: What would you report for Nc1nc(NC2CC2)c2ncn([C@H]3C=C[C@@H](CO)C3)c2n1 ?
OUTPUT: 12700

====

REPORTED_CONDITIONS: human, in vivo
Where a name gives a salt, the structure may show the parent alone.
QUANTITY_NAME: Eta^2, Gender vs Ctrough
Please respond with just the number, no unit label.

INPUT: What value of measured Eta^2, Gender vs Ctrough is listed for Nc1ccn([C@@H]2CS[C@H](CO)O2)c(=O)n1 [3TC, lamivudine] ?
OUTPUT: 0.002

INPUT: Would you kindly repeat that for Nc1nc(NC2CC2)c2ncn([C@H]3C=C[C@@H](CO)C3)c2n1 [ABC, abacavir] ?
OUTPUT: 0.001

INPUT: Please do the same for Nc1nc(=O)n([C@@H]2CS[C@H](CO)O2)cc1F [FTC, emtricitabine] as well.
OUTPUT: 0.000

INPUT: Same read-out for CC(C)OC(=O)OCOP(=O)(CO[C@H](C)Cn1cnc2c(N)ncnc21)OCOC(=O)OC(C)C [TDF, tenofovir disoproxil fumarate] ?
OUTPUT: 0.001

====

Task for the reader: assign each of the following molecules its reported Eta^2, BMI vs Ctrough.
REPORTED_CONDITIONS: human, in vivo
Counter-ions that a name gives are not always drawn.

INPUT: Quick one: Eta^2, BMI vs Ctrough for Nc1nc(NC2CC2)c2ncn([C@H]3C=C[C@@H](CO)C3)c2n1 ?
OUTPUT: 0.000

INPUT: Would you mind doing Nc1nc(=O)n([C@@H]2CS[C@H](CO)O2)cc1F as well?
OUTPUT: 0.000

INPUT: What about this molecule? Nc1ccn([C@@H]2CS[C@H](CO)O2)c(=O)n1
OUTPUT: 0.002

INPUT: Request: CC(C)OC(=O)OCOP(=O)(CO[C@H](C)Cn1cnc2c(N)ncnc21)OCOC(=O)OC(C)C [TDF, tenofovir disoproxil fumarate]
OUTPUT: 0.013

====

REPORTED_CONDITIONS: human, in vivo
Counter-ions that a name gives are not always drawn.
QUANTITY_NAME: Eta^2, Use of Efavirenz vs Ctrough
Just the number, please.

INPUT: Name the reported Eta^2, Use of Efavirenz vs Ctrough value associated with the compound CC(C)OC(=O)OCOP(=O)(CO[C@H](C)Cn1cnc2c(N)ncnc21)OCOC(=O)OC(C)C [TDF, tenofovir disoproxil fumarate]
OUTPUT: 0.005

INPUT: Same for Nc1ccn([C@@H]2CS[C@H](CO)O2)c(=O)n1
OUTPUT: 0.041

INPUT: Same read-out for Nc1nc(NC2CC2)c2ncn([C@H]3C=C[C@@H](CO)C3)c2n1 ?
OUTPUT: 0.040

INPUT: Quick one: Nc1nc(=O)n([C@@H]2CS[C@H](CO)O2)cc1F
OUTPUT: 0.005

====

REPORTED_CONDITIONS: human, in vivo
Counter-ions that a name gives are not always drawn.
Would you mind telling me the reported Eta^2, Education vs Ctrough of each entry?
When you answer, write just the number.

INPUT: Suppose we examine the compound Nc1nc(=O)n([C@@H]2CS[C@H](CO)O2)cc1F ; what Eta^2, Education vs Ctrough value has been reported?
OUTPUT: 0.013

INPUT: Similarly, Nc1ccn([C@@H]2CS[C@H](CO)O2)c(=O)n1 ?
OUTPUT: 0.084

INPUT: Please do the same for CC(C)OC(=O)OCOP(=O)(CO[C@H](C)Cn1cnc2c(N)ncnc21)OCOC(=O)OC(C)C [TDF, tenofovir disoproxil fumarate] as well.
OUTPUT: 0.011

INPUT: Item: Nc1nc(NC2CC2)c2ncn([C@H]3C=C[C@@H](CO)C3)c2n1
OUTPUT: 0.114

====

MEASUREMENT_NOTES: Plasma NRTI concentrations and population PK parameters (POPPY study)
REPORTED_CONDITIONS: PWH on cART, median (IQR), from population PK model
QUANTITY_NAME: Ctrough

INPUT: Fill in: Ctrough of Nc1ccn([C@@H]2CS[C@H](CO)O2)c(=O)n1 is ___
OUTPUT: 3TC: 12.4 (3.0, 126.7) μg/l

====

REPORTED_CONDITIONS: human, in vivo
Where a name gives a salt, the structure may show the parent alone.
QUANTITY_NAME: Eta^2, Ethnicity vs Ctrough
Respond with the number and no other words.

INPUT: Eta^2, Ethnicity vs Ctrough for CC(C)OC(=O)OCOP(=O)(CO[C@H](C)Cn1cnc2c(N)ncnc21)OCOC(=O)OC(C)C [TDF, tenofovir disoproxil fumarate] ?
OUTPUT: 0.011

INPUT: Also need Nc1ccn([C@@H]2CS[C@H](CO)O2)c(=O)n1 [3TC, lamivudine] , thanks.
OUTPUT: 0.021

INPUT: Query Nc1nc(=O)n([C@@H]2CS[C@H](CO)O2)cc1F [FTC, emtricitabine] next
OUTPUT: 0.005

INPUT: Same question, Nc1nc(NC2CC2)c2ncn([C@H]3C=C[C@@H](CO)C3)c2n1 [ABC, abacavir] this time
OUTPUT: 0.002
